Tested on: Salmonella typhimurium TA1535
Test: Ames test (reverse mutation test), TA1535
Format: cell-based
Conditions: S9 Mix +, 6.9 μg/plate
test-readout: Number of revertant colonies TA1535
Reply with just the number.

Recorded Number of revertant colonies TA1535, per entry:
In [3]: df
Out[3]:
                                   molecule  measured_value
0  CC(C)(OCc1cc(F)cc(-c2cc(N)nn2-c2ccc(F)cc2)c1)C(F)(F)F [Metabolite D]              15
1  Cc1ccc(-n2nc(N)cc2-c2cccc(OCC(F)(F)F)c2)cc1 [Metabolite F]              21
2  Cc1cccc(-n2nc(N)cc2-c2cccc(OC(F)(F)F)c2)c1 [Metabolite H]              14

Task: What value of Number of revertant colonies TA1535 has been reported for the following molecule? Nc1cc(-c2cccc(OC(F)(F)F)c2)n(-c2cccc(F)c2)n1 [Metabolite G]
Result: 14

Task: And what about the molecule Nc1cc(-c2cccc(OCC(F)(F)F)c2)n(-c2ccc(F)cc2)n1 [Metabolite E] ?
Result: 32

* * *

Tested on: Salmonella typhimurium TA1535
Test: Ames test (reverse mutation test), TA1535
Format: cell-based
Conditions: S9 Mix −, 2.3 μg/plate
test-readout: Number of revertant colonies TA1535
Number only, please.

Known results for compounds:
                                   compound                 assayed_system  measured_value
0  Nc1cc(-c2cccc(OC(F)(F)F)c2)n(-c2cccc(F)c2)n1 [Metabolite G]  Salmonella typhimurium TA1535              15
1  Cc1cccc(-n2nc(N)cc2-c2cccc(OC(F)(F)F)c2)c1 [Metabolite H]  Salmonella typhimurium TA1535              12
2  CC(C)(OCc1cc(F)cc(-c2cc(N)nn2-c2ccc(F)cc2)c1)C(F)(F)F [Metabolite D]  Salmonella typhimurium TA1535              20
3  Cc1ccc(-n2nc(N)cc2-c2cccc(OCC(F)(F)F)c2)cc1 [Metabolite F]  Salmonella typhimurium TA1535              17
4  Nc1cc(-c2cccc(OCC(F)(F)F)c2)n(-c2ccc(F)cc2)n1 [Metabolite E]  Salmonella typhimurium TA1535              10

Query compound follows.
Task: Give the reported Number of revertant colonies TA1535 for CC(C)(C)Oc1cccc(-c2cc(N)nn2-c2ccccc2)c1 [Metabolite C] (system: Salmonella typhimurium TA1535).
Result: 6

* * *

Reported Number of revertant colonies TA1535 is given for each of the following molecules.
Test system: Salmonella typhimurium TA1535
Test: Ames test (reverse mutation test), TA1535
Format: cell-based
Settings: with S9 mix; dose 6.9 μg/plate
Form: value (number only, do not type unit).

Worked examples, 3 molecules total:
>>> print(df.to_string())
                                   molecule                 assayed_system                         test_readout  measured_value
0  CC(C)(C)Oc1cc(F)cc(-c2cc(N)nn2C(F)(F)F)c1 [Metabolite 1]  Salmonella typhimurium TA1535  Number of revertant colonies TA1535               7
1  CC(C)(C)Oc1cccc(-c2cc(N)nn2-c2ccccc2)c1 [Metabolite C]  Salmonella typhimurium TA1535  Number of revertant colonies TA1535               8
2  Nc1cc(-c2cc(F)cc(OC(F)(F)F)c2)n(-c2cncc(F)c2)n1 [Metabolite 3]  Salmonella typhimurium TA1535  Number of revertant colonies TA1535               8

Now consider a different molecule.
Task: Value lookup for Number of revertant colonies TA1535; key = Nc1cc(-c2cc(F)cc(OC(F)(F)F)c2)n(-c2cncc(C(F)(F)F)c2)n1 [Metabolite 5]
Result: 10
